- tgt: GST fusion human ERK2 protein (Homo sapiens)
- Construct: purchased Carna Biosciences, Inc; host or cells: E. coli expression system
- Sequence (P28482 whole entry, the tested form may be a part): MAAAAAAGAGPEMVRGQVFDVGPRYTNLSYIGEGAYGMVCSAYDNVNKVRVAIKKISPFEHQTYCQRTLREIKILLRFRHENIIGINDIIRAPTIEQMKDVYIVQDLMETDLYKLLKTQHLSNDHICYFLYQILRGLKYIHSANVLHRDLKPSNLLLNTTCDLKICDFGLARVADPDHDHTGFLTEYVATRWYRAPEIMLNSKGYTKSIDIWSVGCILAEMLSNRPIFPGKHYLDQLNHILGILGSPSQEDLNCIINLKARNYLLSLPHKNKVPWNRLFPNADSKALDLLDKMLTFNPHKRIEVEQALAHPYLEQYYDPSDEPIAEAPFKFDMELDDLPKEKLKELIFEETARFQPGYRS
- testSummary: ERK2 enzyme assay (2)
- Type: biochemical
- details: 1.25 nmol/L ERK2, ATP 1 mmol/L; read-out: ERK2 enzyme inhibitory activity (2)
metricName: IC50

The examples below pair each entry with its known result.
• c1cc(OC2CCOCC2)ncc1Nc1cnc2ccc(Nc3nnc(C4CCCC4)s3)nc2c1 [Example 0093] = 10000 to 50000 nM
• CC(C)c1cnnc(Nc2ccc3ncc(-c4cnn(C)c4)nc3n2)c1 [Example 0014] = < 1000 nM
• Cc1cnnc(Nc2ccc3ncc(Nc4cncc(OCCN5CCOCC5)c4)cc3n2)c1 [Example 0158] = 1000 to 10000 nM
• CCc1nnc(Nc2ccc3ncc(-c4cnn(C)c4)cc3n2)s1 [Example 0163] = < 1000 nM
• Cc1ccc(Nc2ccc3ncc(-c4cnn(C)c4)cc3n2)nn1 [Example 0151] = 1000 to 10000 nM

Return reported IC50 values for all items listed beneath this line.
1. COCc1nn(C)cc1-c1cnc2ccc(Nc3nnc(C(C)C)s3)nc2c1 [Example 0142]
2. c1cnc2[nH]cc(-c3cnc4ccc(Nc5nnc(C6CCCC6)s5)nc4c3)c2c1 [Example 0111]
3. C[Si](C)(C)CCOCn1cc(-c2cnc3ccc(Nc4nncs4)nc3c2)cn1 [Example 0025]
4. Cn1cc(-c2cnc3ccc(Nc4nnc(C5CCCC5)s4)nc3c2)c(-c2ccccc2)n1 [Example 0129]
5. COc1nn(C)cc1-c1cnc2ccc(Nc3nnc(C4CCCC4)s3)nc2c1 [Example 0114]
6. c1nc2ccc(Nc3nnc(C4CCCC4)s3)nc2cc1-c1cnn(CCCN2CCOCC2)c1 [Example 0117]
7. Cc1nnc(Nc2ccc3ncc(-c4cnn(C)c4)cc3n2)s1 [Example 0027]
8. COc1cncc(Nc2cnc3ccc(Nc4nnc(C5CCCC5)s4)nc3c2)c1 [Example 0072]

Resp:
1: < 1000 nM; 2: < 1000 nM; 3: < 1000 nM; 4: 1000 to 10000 nM; 5: < 1000 nM; 6: < 1000 nM; 7: < 1000 nM; 8: < 1000 nM
